- experimentDescription: Passive permeability of compound at pH 7.4 incubated for 4 hrs by PAMPA assay
- Assay type: ADME
- particulars: read-out: permeability
endpointLabel: Papp at 4 h (×10⁻⁶ cm/s)
Lab book: enter the figure in ×10⁻⁶ cm/s, no units written.

Problem: Returns the measured Papp at 4 h for the input compound. Input: "CCOc1cc(Oc2cc(C)c(Cl)c(C)c2)cc2c1OCC(=O)N[C@H]1CC[C@H](CC1)CC(=O)N[C@@H](c1ccccc1)C(=O)N1CCC[C@@H]1C(=O)NCCc1ccc(cc1)OC2"
Solution: 7.3

Problem: Same again, this time with "CCOc1cc(Oc2cc(C)c(Cl)c(C)c2)cc2c1OCC(=O)N[C@H]1CC[C@H](CC1)CC(=O)N[C@@H](c1ccccc1)C(=O)N[C@H](Cc1cccnc1)C(=O)NCCc1ccc(cc1)OC2"
Solution: 5.5

Problem: Same again, this time with "CCOc1cc(Oc2cc(C)c(Cl)c(C)c2)cc2c1OCC(=O)N[C@H]1CC[C@H](CC1)CC(=O)N[C@@H](CC(C)C)C(=O)N[C@H](Cc1cccnc1)C(=O)N[C@@H](C(=O)O)Cc1ccc(cc1)OC2"
Solution: 1.5

Problem: Same again, this time with "CCOc1cc(Oc2cc(C)c(Cl)c(C)c2)cc2c1OCC(=O)N[C@H]1CC[C@H](CC1)CC(=O)N[C@@H](c1ccccc1)C(=O)N[C@H](Cc1cccnc1)C(=O)N[C@H](C(=O)O)Cc1ccc(cc1)OC2"
Solution: 3.9

Problem: Same again, this time with "CCOc1cc(Oc2cc(C)c(Cl)c(C)c2)cc2c1OCC(=O)N[C@H]1CC[C@H](CC1)CC(=O)N[C@@H](CC(C)C)C(=O)N[C@H](Cc1cccnc1)C(=O)N[C@H](C(=O)O)Cc1ccc(cc1)OC2"
Solution: 5.3

Problem: Same again, this time with "CCOc1cc(Oc2cc(C)cc(C)c2)cc2c1OCC(=O)N[C@H]1CC[C@H](CC1)CC(=O)N[C@@H](c1ccccc1)C(=O)N[C@H](Cc1ccccc1)C(=O)N[C@H](C(=O)O)Cc1ccc(cc1)NC2"
Solution: 2
